These data points were gathered from patent US20210261618A1.

# Experiment notes: in vivo
# Experimental context: both, Kunming, mouse, iv, 2000 mg/kgBW
Where no end group is shown, it is not given here.
Value type: NOAEL at 336 h (mg/kg)

> print(dat)
          residue.string      value.type  unit.of.measure  recorded.number
1  RVLNGPEEEAAAPAE [sp2]  NOAEL at 336 h            mg/kg             2000
